Measured growth by item
Tested on: SNB-19 CNS
test.details: NCI-60 one-dose screen, 48 h (100 = growth as untreated, 0 = no growth, -100 = all killed)
measurement.parameters: 10 µM
Compounds without any hit were thinned out: in the full panel of roughly 83,000, 20% have a hit.

entry.smiles: COc1ccccc1-n1cc(C#N)c(N)c1C(=O)c1ccc(Cl)cc1Cl
growth [%]: 30.1
//
entry.smiles: O=C(CSc1nc2ccccc2c(=O)n1-c1ccc(Cl)cc1)Nc1ccc(-c2nc3ccc([N+](=O)[O-])cc3[nH]2)cc1
growth [%]: 48.7
//
entry.smiles: COc1ccc2[nH]cc(-c3nc(N)nnc3-c3cn(C)c4ncc(Br)cc34)c2c1
growth [%]: 30

----------
Test system: MDA-MB-468 breast
test.details: NCI-60 one-dose screen, 48 h (100 = growth as untreated, 0 = no growth, -100 = all killed)
measurement.parameters: 10 µM unless noted
Compounds without any hit were thinned out: in the full panel of roughly 83,000, 20% have a hit.

compound: O=C(c1ccccc1)C(Sc1ccccc1)c1ccccc1 (stereo not drawn)
growth / %: 88.7
//
compound: C=C(C)COc1ccc(C(C)(C)C)cc1
growth / %: 91.2
//
compound: CC(C)=C(NC(=O)c1ccccc1)C(=O)O
growth / %: 88.5

----------
Measured growth by item
Test system: SW-620 colon
test.details: NCI-60 one-dose screen, 48 h (100 = growth as untreated, 0 = no growth, -100 = all killed)
measurement.parameters: 10 µM
This is part of a sample that, as a whole, favours compounds with a hit. Of some 83,000 tested, about 20% had one in any assay.

compound: COC(=O)CNC(=O)COc1c(OC)c(OC)cc2oc(-c3cccc(C(=O)Nc4ccc(Cl)cc4)c3)cc(=O)c12
growth (%): 51.4
//
compound: Cn1cc(/C=C(/SS/C(=C/c2cn(C)c3cccc(C(=O)O)c23)C(=O)O)C(=O)O)c2c(C(=O)O)cccc21
growth (%): 116
//
compound: O=C(CC(=O)Nc1ccc(Oc2ncnc3scc(Nc4n[nH]c(=S)s4)c23)cc1)Nc1ccc(Cl)cc1
growth (%): 93.5
//
compound: Cc1ccc(COc2ccc(NC(=O)Nc3ccc(Cl)c(C(F)(F)F)c3)cc2)cc1
growth (%): 86.5
//
compound: O=C(c1ccccc1)c1ccc2nc(-c3ccccc3Br)[nH]c2c1
growth (%): -17.9
//
compound: O=C(Nc1ccc(OCc2ccc(F)cc2)cc1)Nc1ccc(Cl)c(C(F)(F)F)c1
growth (%): 22.3
//
compound: C#CCOc1cc(N(CC)CC)ccc1C(C(=O)NC(C)(C)C)N(C(=O)C1CCc2cc(F)ccc2O1)c1ccc(F)cc1F (configuration not stated)
growth (%): 53.7

----------
Tested on: MDA-MB-468 breast
test.details: NCI-60 one-dose screen, 48 h (100 = growth as untreated, 0 = no growth, -100 = all killed)
measurement.parameters: 10 µM unless noted
Compounds without any hit were thinned out: in the full panel of roughly 83,000, 20% have a hit.
Measured growth by item
measurement.label: growth (%)

compound: COc1ccc(/C=C/C(=O)c2c(C)nc3ccccc3c2/C=C/c2ccccc2)c(OC)c1
measurement.label: growth
measured.number: 87

compound: CC1CCC(=O)N1c1ccc(N)cc1 (stereo not given)
measurement.label: growth
measured.number: 115

compound: Cc1occc1-c1nc2s/c(=C\c3cn(-c4ccccc4)nc3-c3ccccc3)c(=O)n2n1
measurement.label: growth
measured.number: 89.8

compound: C=C1C(=O)O[C@H]2[C@H]1CC/C(CNC(=O)/C=C/c1cc(OC)c(OC)c(OC)c1)=C\CC[C@@]1(C)O[C@@H]21
measurement.label: growth
measured.number: -57.6

compound: CC(=O)c1nn(-c2ccccc2)c(=Nc2ccccc2)cc1C
measurement.label: growth
measured.number: 91.9

The values you see were collected from PubChem BioAssay (NCI).
